- System: BT-549 breast
- TEST_NAME: NCI tumour cell line growth inhibition, 48 h
QUANTITY: TGI

| MOLECULE | TGI |
| --- | --- |
| Cc1cc(O)cc(C)c1/C=C/c1cncc(C(N)=O)c1 | > 25 µM |
| COC(=O)C1=C(OC(=O)/C(=C/c2ccccc2)c2ccc(Cl)cc2)C(C(=O)OC)[C@@]2(O)[C@@H](C(=O)OC)[C@H](C)C[C@@H]1[C@@H]2C(=O)OC (some centres undefined) | > 100 µM |
| CCNC(=O)Nc1ccc(Oc2ccnc3ccc4c(ccn4C)c23)cc1 | > 100 µM |
| CN(C)CCCSc1nc2c(c(=N)n1-c1ccccc1)c(=S)n(-c1ccccc1)c(=S)n2-c1ccccc1 | 3.38 µM |

Req: Name the reported TGI value associated with the molecule `COC(=O)[C@H](Cc1c[nH]c2ccccc12)NP(=O)(O)OC[C@H]1O[C@@H](n2cc(C)c(=O)[nH]c2=O)C[C@@H]1N=[N+]=[N-]`
Resp: > 100 µM
